Sourced from patent US20220220103A1

molecular target: CDK4-CYCLIND1 (Homo sapiens, UniProt P11802); assay: Microfluidic LabChip inhibition assay, CDK4-CYCLIND1; assay type: biochemical; settings: Table 2; ATP 200 μM, 25° C.; read-out: CDK4 IC50
Sequence (P11802 whole entry): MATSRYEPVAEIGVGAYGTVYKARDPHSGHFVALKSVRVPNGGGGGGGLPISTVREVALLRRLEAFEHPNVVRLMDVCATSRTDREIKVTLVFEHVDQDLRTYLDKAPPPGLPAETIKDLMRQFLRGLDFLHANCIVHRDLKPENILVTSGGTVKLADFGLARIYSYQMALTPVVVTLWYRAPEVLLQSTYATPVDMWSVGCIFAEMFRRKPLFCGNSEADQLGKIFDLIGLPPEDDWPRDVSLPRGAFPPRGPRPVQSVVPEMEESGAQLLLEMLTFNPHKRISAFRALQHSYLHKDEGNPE
Sequence (P24385 whole entry partner): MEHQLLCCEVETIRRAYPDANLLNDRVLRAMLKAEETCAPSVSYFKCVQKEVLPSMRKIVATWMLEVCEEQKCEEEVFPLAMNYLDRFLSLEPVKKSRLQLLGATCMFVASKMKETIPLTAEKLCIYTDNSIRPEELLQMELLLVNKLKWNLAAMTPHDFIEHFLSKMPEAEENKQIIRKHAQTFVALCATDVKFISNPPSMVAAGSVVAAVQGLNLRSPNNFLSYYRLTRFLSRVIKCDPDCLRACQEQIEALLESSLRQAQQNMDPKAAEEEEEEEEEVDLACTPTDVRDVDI
measuredQuantity: IC50 (nM)

a: N#Cc1cc2cnc(Nc3ccc(OCCN4CCCC4)cn3)nc2n(C2CCCC2)c1=O [Compound B7]
b: N#Cc1cc2cnc(Nc3ccc(N4CCNCC4)c(F)c3)nc2n(C2CCCC2)c1=O [Compound B14]
# min-compare on IC50 between a and b Returns: label corresponding to the selected item.
b

----------
Molecular target: CDK7 CyclinH (Homo sapiens, UniProt P50613)
Sequence (P50613 whole entry): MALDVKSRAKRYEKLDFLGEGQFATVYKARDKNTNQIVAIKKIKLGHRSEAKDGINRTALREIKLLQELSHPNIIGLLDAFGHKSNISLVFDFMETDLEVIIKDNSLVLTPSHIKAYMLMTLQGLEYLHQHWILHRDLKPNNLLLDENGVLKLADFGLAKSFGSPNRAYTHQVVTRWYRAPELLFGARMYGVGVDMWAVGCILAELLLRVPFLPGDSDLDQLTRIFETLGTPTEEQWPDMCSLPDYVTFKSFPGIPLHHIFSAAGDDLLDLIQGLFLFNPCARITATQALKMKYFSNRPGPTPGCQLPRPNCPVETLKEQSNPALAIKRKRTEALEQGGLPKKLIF
Sequence (P51946 whole entry partner): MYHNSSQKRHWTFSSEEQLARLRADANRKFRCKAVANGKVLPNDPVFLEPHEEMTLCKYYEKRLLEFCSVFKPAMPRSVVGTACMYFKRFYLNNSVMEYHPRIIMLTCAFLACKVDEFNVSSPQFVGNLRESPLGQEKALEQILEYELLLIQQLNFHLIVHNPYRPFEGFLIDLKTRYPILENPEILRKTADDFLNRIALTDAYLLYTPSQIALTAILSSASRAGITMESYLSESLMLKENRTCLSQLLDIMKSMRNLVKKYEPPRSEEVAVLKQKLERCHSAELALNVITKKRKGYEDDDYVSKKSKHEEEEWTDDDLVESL
Sequence (P51948 whole entry partner): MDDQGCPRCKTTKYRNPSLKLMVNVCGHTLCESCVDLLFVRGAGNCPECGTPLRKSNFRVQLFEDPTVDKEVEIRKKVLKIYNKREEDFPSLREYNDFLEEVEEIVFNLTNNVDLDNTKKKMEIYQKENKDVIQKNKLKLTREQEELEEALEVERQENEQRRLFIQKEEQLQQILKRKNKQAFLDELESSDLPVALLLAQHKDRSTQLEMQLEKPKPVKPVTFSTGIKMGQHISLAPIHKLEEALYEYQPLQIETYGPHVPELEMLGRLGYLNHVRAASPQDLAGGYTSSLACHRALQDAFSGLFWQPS
Experiment: Inhibition assay, CDK7 CyclinH
Assay type: biochemical
Conditions: Table 3b
Procedure: The reaction was terminated by the addition of EDTA. The plates were analyzed using a Caliper LabChip 3000. Additional inhibition assays were performed as described above.
measuredQuantity: IC50 (nM)

compound	testedSystem	measuredQuantity	reported
CC(=O)c1c(C)c2cnc(Nc3ccc(N(C)CCN(C)C)cc3)nc2n(C2CCCC2)c1=O	CDK7 CyclinH (Homo sapiens, UniProt P50613)	IC50	468

I: CC(=O)c1c(C)c2cnc(Nc3ccc(N4CC(C)NC(C)C4)cc3)nc2n(C2CCCC2)c1=O (stereo not drawn)
II: COc1cc(Nc2ncc3c(C)c(C(C)=O)c(=O)n(C4CCCC4)c3n2)ccc1OCCN(C)C
Hey, which is lower on measured IC50, I or II ? Returns: label corresponding to the selected item.
I

----------
Each entry below carries its recorded IC50.
Target: CDK6-CYCLIND3 (Homo sapiens, UniProt Q00534)
Sequence (Q00534 whole entry): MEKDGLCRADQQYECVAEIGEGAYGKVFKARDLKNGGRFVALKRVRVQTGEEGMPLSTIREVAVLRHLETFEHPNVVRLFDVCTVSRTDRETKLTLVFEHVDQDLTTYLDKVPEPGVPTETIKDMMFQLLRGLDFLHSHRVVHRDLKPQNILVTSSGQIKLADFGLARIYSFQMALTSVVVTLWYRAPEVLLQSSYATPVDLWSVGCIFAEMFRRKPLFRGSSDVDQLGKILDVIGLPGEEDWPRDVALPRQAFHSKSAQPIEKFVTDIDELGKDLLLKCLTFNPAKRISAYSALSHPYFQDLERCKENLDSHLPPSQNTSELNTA
Sequence (P30281 whole entry partner): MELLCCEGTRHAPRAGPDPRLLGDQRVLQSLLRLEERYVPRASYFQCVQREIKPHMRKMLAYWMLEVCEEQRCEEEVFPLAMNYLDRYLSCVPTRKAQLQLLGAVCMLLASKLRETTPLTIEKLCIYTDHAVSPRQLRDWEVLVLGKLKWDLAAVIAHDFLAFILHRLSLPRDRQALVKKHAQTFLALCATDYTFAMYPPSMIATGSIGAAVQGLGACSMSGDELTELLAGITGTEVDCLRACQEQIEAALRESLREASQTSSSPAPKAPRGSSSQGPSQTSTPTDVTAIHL
Assay: Microfluidic LabChip inhibition assay, CDK6-CYCLIND3
Assay type: biochemical
Settings: Table 2; ATP 300 μM, 25° C.; read-out: CDK6 IC50
Method: The reaction was terminated by the addition of EDTA. The plates were analyzed using a Caliper LabChip 3000. Additional inhibition assays were performed as described above.

chemicalString	IC50
N#Cc1ccc(N2CCN(c3ncc4cc(C#N)c(=O)n(C5CCCC5)c4n3)CC2)cc1	> 30 µM
CN1CCN(c2cnc(Nc3ncc4cc(C#N)c(=O)n(C5CCCC5)c4n3)cc2C(F)(F)F)CC1	≥ 30 µM

For the next question, use this compound.
Fill blank: measured IC50 of the compound "N#Cc1cc2cnc(N3CCC(N4CCOCC4)CC3)nc2n(C2CCCC2)c1=O" is ____.
≥ 30 µM

----------
molecular target: CDK6-CYCLIND3 (Homo sapiens); assay: Microfluidic LabChip inhibition assay, CDK6-CYCLIND3; type: biochemical; conditions: Table 2; ATP 300 μM, 25° C.; read-out: CDK6 IC50
measuredQuantity: IC50 (nM)

chemicalString	measuredQuantity	reported
N#Cc1cc2cnc(Nc3ccc(N4CCNCC4)cc3F)nc2n(C2CCCC2)c1=O	IC50	36.8

I: N#Cc1cc2cnc(Nc3cc(C(F)(F)F)c(N4CCNCC4)cn3)nc2n(C2CCCC2)c1=O
II: N#Cc1cc2cnc(Nc3ccc(N4CCC(N5CCOCC5)CC4)nc3)nc2n(C2CCCC2)c1=O
III: CC(C)N1CCN(c2ccc(Nc3ncc4cc(C#N)c(=O)n(C5CCCC5)c4n3)cc2)CC1
IV: N#Cc1cc2cnc(Nc3ccc(N4CC5(CNC5)C4)c(F)c3)nc2n(C2CCCC2)c1=O
V: CC(C)N1CCN(c2ccc(Nc3ncc4cc(C#N)c(=O)n(C5CCCC5)c4n3)cc2F)CC1
# rank by IC50, ascending (min first) As an answer, provide the labels arranged in the order called for.
IV, III, V, II, I
(IV: 3.89 nM, III: 6.32 nM, V: 10.4 nM, II: 30.8 nM, I: 9240 nM)
